B1: glmS ribozyme (parent)
chain: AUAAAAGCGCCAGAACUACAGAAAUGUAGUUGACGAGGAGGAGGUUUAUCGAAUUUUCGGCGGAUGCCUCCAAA

Variants of: B1
Assay: self-cleavage kobs at 2500 uM GlcN6P; higher = faster cleavage; RNA array
Conditions: with glucosamine-6-phosphate
Variants at the floor of the assay were thinned out.
A collection of variants and their measured self-cleavage kobs at 2500 uM GlcN6P
Write the answer as a number in s⁻¹, unit excluded.

In the examples that follow, each entry is paired with its recorded self-cleavage kobs at 2500 uM GlcN6P.
| changes | scale_unit | self-cleavage kobs at 2500 uM GlcN6P |
| --- | --- | --- |
| C11U U56A | s⁻¹ | 0.000621 |
| A14G G41U U69A | s⁻¹ | 8.6e-05 |
| U31G U56G C71A | s⁻¹ | 0.000191 |
| A48U U69C | s⁻¹ | 0.000147 |

Exercise: Can you look up the measured self-cleavage kobs at 2500 uM GlcN6P of C16U G29A for me?
Key: 0.0121

Exercise: Can you look up the measured self-cleavage kobs at 2500 uM GlcN6P of A14C C58A C67A C68G for me?
Key: 4.77e-05

Exercise: Can you look up the measured self-cleavage kobs at 2500 uM GlcN6P of A12U G41A for me?
Key: 0.00213
